- System: Plasmodium falciparum Sir2 (PF13_0152, Sir2A)
- Assay Method Text: Plasmodium falciparum Sir2A binding compounds – biochemical, small-molecule microarray, 635 nm fluorescence, primary screen (AID 1098);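 note: score merges spot fluorescence intensity with its signal-to-noise ratio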
- Experimental Setup: fluorescence 635 nm, higher = more signal
In this section, each of the molecules is paired with its reported composite z-score.
Response field accepts a number only; no unit should be typed.

The cases that follow already have their composite z-score on record.
[
  {
    "Molecule": "Cc1c(NC(=O)/C(C#N)=C/c2cccc([N+](=O)[O-])c2)c(=O)n(-c2ccccc2)n1C",
    "Study System": "Plasmodium falciparum Sir2 (PF13_0152, Sir2A)",
    "composite z-score": 0.141
  },
  {
    "Molecule": "CC(=CC1CCCCC1)[C@@H](NC(=O)c1cccnc1)c1ccc(-c2ccccc2)cc1",
    "Study System": "Plasmodium falciparum Sir2 (PF13_0152, Sir2A)",
    "composite z-score": -0.178
  },
  {
    "Molecule": "C=CCN1C(=O)[C@]2(Cc3ccccc3)N=C(c3ccc(OCCCO)cc3)O[C@@H]2c2ccccc21",
    "Study System": "Plasmodium falciparum Sir2 (PF13_0152, Sir2A)",
    "composite z-score": 1.16
  }
]

Per the record, CC(C)(C)OC(=O)CC[C@]1(C(=O)NCCN2CCOCC2)COC(c2ccc(OCCCO)cc2)=N1 has composite z-score of 0.706

Query C[N+](C)(C)CCCCCCNC(=O)[C@H]1C[C@H]2C(=O)N[C@@H](Cc3ccccc3)C(=O)N2[C@H]1c1cccc(OCCO)c1 yields composite z-score of 1.65

response.value for C=CCC(OC(C)=O)[C@@H]1[C@@H](N(Cc2cc3ccccc3o2)C(=O)Cc2ccc(OC)cc2)c2cc(OCCCO)ccc2N1C(=O)c1ccc2ccccc2c1 (stereo partly specified) (field: composite z-score) = 1.02

The molecule listed as CC(C)CNC(=O)[C@@]1(Cc2ccccc2I)c2ccccc2C(=O)N(Cc2ccccc2C(F)(F)F)[C@H]1c1ccc(CO)cc1 has a reported composite z-score of -0.164

For reference, reported composite z-score for COCCOC(=O)N1C(=O)[C@@]2(c3cc(C#Cc4ccc(OC)cc4)ccc31)[C@H](c1ccc(O)cc1)N1[C@H](c3ccccc3)[C@H](c3ccccc3)OC(=O)[C@H]1[C@@H]2C(=O)Nc1nc2ccccc2s1 stands at 0.666

In plain terms, OCC1C=C(/C=C/c2ccccc2)CN1Cc1ccccc1Br (stereo unspecified) has a documented composite z-score of 1.1

Lab book: composite z-score of CC(c1ccccc1)C(O)C1C=CC2C(=O)N(c3ccccc3)C(=O)C2N1Nc1ccccc1 (stereo unspecified) noted as 1.18

Form: molecule = O=C(O)[C@@]1(CCS(=O)(=O)c2ccccc2)N=C(c2ccc(OCCCO)cc2)O[C@H]1c1ccccc1 ; composite z-score = 0.729

According to the records, this molecule COc1ccc([Si](C)(C)[C@H]2[C@H](CCn3cc([C@H](O)c4ccccc4)nn3)O[C@@]3(C(=O)N(C)c4ccccc43)[C@@H]2C)cc1 displays composite z-score of 1.17

# composite z-score (molecule: CCOC(=O)C[C@H]1[C@H](OC(=O)c2ccc(C(=O)c3ccccc3)cc2)[C@@H](NC(=O)Cc2ccc(OC)cc2)c2cc(OCCCO)ccc2N1C(=O)c1ccc2ccccc2n1 ) is 0.31

The recorded composite z-score for CC(C)[Si](C#C[Si](C(C)C)(C(C)C)C(C)C)(O[C@H](C)c1cn(Cc2ccccc2)nn1)C(C)C is 0.733
